Assay: yeast display, Sf9 membrane polyspecificity reagent, FACS + sequencing; frameworks hold sequencing errors
Measured attribute: polyreactivity (PSR sort gate)

# Sequence, Measured attribute, Recorded result
rows = [
    ("QVHHVDSGGGLVQAGGTLRLSIPASGRTFQYYTMGWYRQPPGKERELVAAIRRGGSTYYADSVKGRFSISRDNAKNTVYLQLNILKPEDTAVYYCADLYAYSLTARGMEYWGQGTQVTVSS", "polyreactivity (PSR sort gate)", "high polyreactivity"),
    ("QVQLIESGGGLVQAGGSLRLSCAASGSTFYGNAMGWYRQAPGKEREFVDAITGSGDSTDYADSVKGRFTISRDNAKNTVYLQMNSLKPEDTAVYFCNAEVFDRDSYEYWGQGTQVSVSS", "polyreactivity (PSR sort gate)", "low polyreactivity"),
    ("QDQLVESGGGLVQAGGSLRLSCAASGITFAYYVMGWYRQATGKERELVAAISRSGSTYYADSVKGRFTISRDNAKNTVYLQMNSLKPEDTAVNYCAVLYIRWYTYEYWGQGTQVTVSS", "polyreactivity (PSR sort gate)", "high polyreactivity"),
    ("QVQLQESSGGLVQAGVCLQQSCAASGSIFTQHPMGRYRQAPANEREFVAAINVGSNTYYADSVKGRITISRDNAKNTVSLQMNILTPEDTAVSYCAATSIRWSVGYFRRDYWGQGTQVTVSS", "polyreactivity (PSR sort gate)", "low polyreactivity"),
    ("QVQLVESGGGLVQAGGSLRLSCAASGRIFKTYAMGWYRQAPGKEREVVAAITAAGGRTYYADSVKGRFTISRDNAKNTVYLQMNSLKPEDTAVYYCAADSGNDYDYWGQGTQVTVSS", "polyreactivity (PSR sort gate)", "low polyreactivity"),
]

###

Test: yeast display, Sf9 membrane polyspecificity reagent, FACS + sequencing; frameworks hold sequencing errors

# Sequence, polyreactivity (PSR sort gate)
rows = [
    ("QDQHVESGGGLVQAGCSLRLSCAASGRTFTYNAMGWYRQAPGKERELVASISSRGGSTYYADSVKGRFTISRDNAKNTVYLQMNSLKPEDTAVYYCAARWRYQLSGSRLSYGKYDYWGQGTQVTVSS", "high polyreactivity"),
    ("QVQLVESGGGLVQAGGSLRLSCAASGYIFRRYAMGWYRQAPGKERELVAAISFSGGSTYYADSVKGRFTISRDNAKNTVYLQMNSLKPEDTAVYYCAALSLLRYDYWGQGTQVTVSS", "high polyreactivity"),
]

###

Assay: yeast display, Sf9 membrane polyspecificity reagent, FACS + sequencing; frameworks hold sequencing errors

# Sequence, polyreactivity (PSR sort gate)
records = [
    ("QFQLVESGGGLVQAGVSLRLSCAASGSTFYYGMVCSRHAPRKERELVAAISSRGGTTYYADSVKGRFTISRDNAKNTVYLQMNSLKPEDTAVYYCAAPVPYYVPSRNEGDYWGQGTQVTVSS", "low polyreactivity"),
    ("QVQRVESRGVLVQAGGTLRLSCAASGISFGRNTMGWYRQAPLKERELVATIRSGTNYADSVKGRFTISRDNAKNTVDLQMNSLKPDDTAVDYCAVRYFGGRRSYYWGQGSQVTVSS", "high polyreactivity"),
    ("QVQLVESGGGLVQAGGSLRLSCAASGRIIGWYAMGRYRQAPGKERELVAAISQDATRTYYADSVKGRFTISRDNAKHTVYLQMNRLKPEDTAVYYCNVVYRYAGWSYDSWGQGTQVTVSS", "high polyreactivity"),
    ("QVQLVESGGGLVQAGGSLRLRCAASGRTFYVYAMGWYRQAPGKERELVATNNTGGSTYYADSVKGRFTISRDNAKNTVYLQMNSLKPEDTAVYYCAARYNPYYIRFGFDKSFYYWGQGTQVTVSS", "low polyreactivity"),
    ("QVQLVESGGGLVQAGGSLRLSCAASGRIFVGNAMGWYRQAPGKERELVAAITRSGSRTYYADSVKGRFTISRDNAKNTVYLQMISLKPEDTAVYYCNAPIRTWPGYDYWGQGTQVTVSS", "high polyreactivity"),
]
